target: recombinant human KLK5 (human) (UniProt Q9Y337); assay: Kiapp as the y-intercept of the line of IC50 (nM) versus KLK5 (nM), Z-VPR-pNA
Sequence (Q9Y337 67-293): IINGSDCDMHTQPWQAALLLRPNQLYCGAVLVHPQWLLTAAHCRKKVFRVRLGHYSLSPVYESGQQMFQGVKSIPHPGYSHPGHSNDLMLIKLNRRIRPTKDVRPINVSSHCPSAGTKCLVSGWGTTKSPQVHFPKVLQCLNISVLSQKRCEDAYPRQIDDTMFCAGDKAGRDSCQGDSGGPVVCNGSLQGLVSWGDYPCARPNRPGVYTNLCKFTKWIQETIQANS
Result type: Ki (nM)
Field: numeric (nM). Do not append units.

- Binder: "8F5 (antibody, V domains shown) VH: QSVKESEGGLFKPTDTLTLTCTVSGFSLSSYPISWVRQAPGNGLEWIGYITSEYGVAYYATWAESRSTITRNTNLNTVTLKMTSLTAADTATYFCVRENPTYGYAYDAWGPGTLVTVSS VL: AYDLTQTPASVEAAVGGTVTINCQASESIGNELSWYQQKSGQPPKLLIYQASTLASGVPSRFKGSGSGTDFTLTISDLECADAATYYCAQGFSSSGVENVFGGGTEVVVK"
  Result type: "Ki"
  Numeric readout: 1.85
- Binder: "2B11 (antibody, V domains shown) VH: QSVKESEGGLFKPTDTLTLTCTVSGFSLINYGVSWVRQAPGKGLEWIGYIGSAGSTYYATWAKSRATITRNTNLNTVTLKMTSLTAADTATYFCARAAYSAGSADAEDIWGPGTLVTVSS VL: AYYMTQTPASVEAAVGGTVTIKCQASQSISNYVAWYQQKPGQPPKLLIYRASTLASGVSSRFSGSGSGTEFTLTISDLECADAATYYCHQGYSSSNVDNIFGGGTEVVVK"
  Result type: "Ki"
  Numeric readout: 6.36

Continue with the binder presented below.
Summary for this binder, 9H3 (antibody, V domains shown) VH: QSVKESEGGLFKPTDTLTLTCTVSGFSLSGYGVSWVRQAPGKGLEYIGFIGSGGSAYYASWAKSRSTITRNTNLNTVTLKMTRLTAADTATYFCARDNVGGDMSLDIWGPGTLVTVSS VL: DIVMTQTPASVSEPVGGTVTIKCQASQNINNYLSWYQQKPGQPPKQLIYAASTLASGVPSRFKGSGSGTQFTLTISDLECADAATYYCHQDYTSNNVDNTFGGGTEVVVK : Ki is 0.0697
